Consider the following compounds; for each one, report its ILS at 10 mg/kg.
# Tested on: L1210
# TEST DESCRIPTION: Antitumor activity against L1210 leukemia cells measured as percent increase in life span (% ILS) at 10 mg/kg
# Type: functional
# STUDY CONDITIONS: Mus musculus
Numbers only, in %.

Field: example entries. Status: answers known.
structure_smiles=CCN(CC)CCCNc1nccc2c(C)c3[nH]c4ccncc4c3c(C)c12 observed_result=46
structure_smiles=CCNCCCNc1nccc2c(C)c3[nH]c4ccc(OC)cc4c3c(C)c12 observed_result=84

Give ILS at 10 mg/kg for all compounds that follow.
1. CCN(CC)CCCNc1nccc2c(C)c3c(c(C)c12)c1cc(O)ccc1n3C
2. COc1ccc2[nH]c3c(C)c4ccnc(NCCCN(CCCl)CCCl)c4cc3c2c1

A:
1. 66.5
2. 26
